test system: cancer patients; test: Test Example 4: correlation between vaccination with individual peptides (or peptide sets) and OS, Cox proportional hazards regression; assay type: in vivo, human; conditions: Table 21; patients showing both <64% neutrophil and ≥26% lymphocyte; Cox proportional hazards regression, OS
ENDPOINT: HR
Please respond with just the number, no unit label.

Input QIRPIFSNR (listed as Homo sapiens) [SART3-734] . Output HR: 0.9

Input LYAWEPSFL (listed as Homo sapiens) [MRP3-503] . Output HR: 1.0

Input NYSVRYRPGL (listed as Homo sapiens) [MRP3-1293] . Output HR: 1.0

Input HYTNASDGL (listed as Homo sapiens) [Lck-208] . Output HR: 0.7

Input DYVREHKDNI (listed as Homo sapiens) [EGFR-800] . Output HR: 0.9

Input ALVEFEDVL (listed as Homo sapiens) [HNRPL-140] . Output HR: 0.8

Input TYSVSFDSL (listed as Homo sapiens) [PSMA-624] . Output HR: 0.9

Input DYSARWNEI (listed as Homo sapiens) [SART2-93] . Output HR: 1.0

Input VIQNLERGYR (listed as Homo sapiens) [Lck-449] . Output HR: 0.8

Input DYLRSVLEDF (listed as Homo sapiens) [Lck-488] . Output HR: 1.0

Input WLEYYNLER (listed as Homo sapiens) [SART3-511] . Output HR: 0.9

Input RYLTQETNKV (listed as Homo sapiens) [PTHrP-102] . Output HR: 0.9

Input VYDYNCHVDL (listed as Homo sapiens) [SART3-109] . Output HR: 1.0

Input GIHKQKEKSR (listed as Homo sapiens) [PAP-248] . Output HR: 1.1

Input DVWSFGILL (listed as Homo sapiens) [Lck-422] . Output HR: 1.1

Input KLVERLGAA (listed as Homo sapiens) [Lck-246] . Output HR: 1.1

Input KYVGIEREM (listed as Homo sapiens) [EZH2-735] . Output HR: 0.7

Input HYRKWIKDTI (listed as Homo sapiens) [PSA-248] . Output HR: 0.9

Input LYCESVHNF (listed as Homo sapiens) [PAP-213] . Output HR: 0.9

----------
system: cancer patients; test: Test Example 4: correlation between vaccination with individual peptides (or peptide sets) and OS, Cox proportional hazards regression; assay type: in vivo, human; conditions: Table 21; patients showing both <64% neutrophil and ≥26% lymphocyte; Cox proportional hazards regression, OS
What HR was measured for each of the following?
Please respond with just the number, no unit label.

Input ILGELREKV (listed as Homo sapiens) [WHSC2-141] . Output HR: 1.0

Input ASLDSDPWV (listed as Homo sapiens) [WHSC2-103] . Output HR: 1.0

Input KLKHYGPGWV (listed as Homo sapiens) [CypB-129] . Output HR: 0.9

Input ILEQSGEWWK (listed as Homo sapiens) [Lck-90] . Output HR: 1.0

Input AYDFLYNYL (listed as Homo sapiens) [SART2-161] . Output HR: 1.1

Input TFDYLRSVL (listed as Homo sapiens) [Lck-486] . Output HR: 0.9

Input RLAEYQAYI (listed as Homo sapiens) [SART3-309] . Output HR: 0.9

Input DLLSHAFFA (listed as Homo sapiens) [MAP-432] . Output HR: 1.1

Input LLQAEAPRL (listed as Homo sapiens) [SART3-302] . Output HR: 0.9

Input NVLHFFNAPL (listed as Homo sapiens) [HNRPL-501] . Output HR: 0.9

----------
What Pre-vaccination IgG Median (FIU) was measured for each of the following?
Test system: anti-peptide IgG in plasma
Assay: Test Example 4: peptide-specific IgG titer pre and post vaccination, bead-based multiplexed Luminex assay
Assay type: in vivo, human
Settings: Table 20; patients showing both <64% neutrophil and ≥26% lymphocyte
Description: As described previously, IgG titer specific to the antigen peptides in plasma was measured by bead-based multiplexed Luminex assay (Luminex, Austin, Tex.) before and after vaccination, i.e., at the end of each cycle or at the end of the clinical trial (Non-Patent Literature 4). […] The resultant beads were washed 4 times, followed by addition of 100 μL of Tween-PBS to each well, and detection of fluorescence intensity units (FIU) on the beads using the Luminex system. […]
Field: numeric (FIU). Do not append units.

Input DYLRSVLEDF (listed as Homo sapiens) [Lck-488] . Output Pre-vaccination IgG Median (FIU): 60

Input HYRKWIKDTI (listed as Homo sapiens) [PSA-248] . Output Pre-vaccination IgG Median (FIU): 47

Input HYTNASDGL (listed as Homo sapiens) [Lck-208] . Output Pre-vaccination IgG Median (FIU): 31

Input DLLSHAFFA (listed as Homo sapiens) [MAP-432] . Output Pre-vaccination IgG Median (FIU): 52

Input ILGELREKV (listed as Homo sapiens) [WHSC2-141] . Output Pre-vaccination IgG Median (FIU): 38

Input ASLDSDPWV (listed as Homo sapiens) [WHSC2-103] . Output Pre-vaccination IgG Median (FIU): 40

Input KLVERLGAA (listed as Homo sapiens) [Lck-246] . Output Pre-vaccination IgG Median (FIU): 48

Input AYDFLYNYL (listed as Homo sapiens) [SART2-161] . Output Pre-vaccination IgG Median (FIU): 27

Input LYAWEPSFL (listed as Homo sapiens) [MRP3-503] . Output Pre-vaccination IgG Median (FIU): 40

Input LLQAEAPRL (listed as Homo sapiens) [SART3-302] . Output Pre-vaccination IgG Median (FIU): 84

Input KYVGIEREM (listed as Homo sapiens) [EZH2-735] . Output Pre-vaccination IgG Median (FIU): 23

Input VIQNLERGYR (listed as Homo sapiens) [Lck-449] . Output Pre-vaccination IgG Median (FIU): 23

Input GIHKQKEKSR (listed as Homo sapiens) [PAP-248] . Output Pre-vaccination IgG Median (FIU): 38

Input VYDYNCHVDL (listed as Homo sapiens) [SART3-109] . Output Pre-vaccination IgG Median (FIU): 30

Input KLKHYGPGWV (listed as Homo sapiens) [CypB-129] . Output Pre-vaccination IgG Median (FIU): 28

Input WLEYYNLER (listed as Homo sapiens) [SART3-511] . Output Pre-vaccination IgG Median (FIU): 38

Input NVLHFFNAPL (listed as Homo sapiens) [HNRPL-501] . Output Pre-vaccination IgG Median (FIU): 48

Input NYSVRYRPGL (listed as Homo sapiens) [MRP3-1293] . Output Pre-vaccination IgG Median (FIU): 27

Input RYLTQETNKV (listed as Homo sapiens) [PTHrP-102] . Output Pre-vaccination IgG Median (FIU): 27

Input ALVEFEDVL (listed as Homo sapiens) [HNRPL-140] . Output Pre-vaccination IgG Median (FIU): 37

Input RLAEYQAYI (listed as Homo sapiens) [SART3-309] . Output Pre-vaccination IgG Median (FIU): 33

Input LYCESVHNF (listed as Homo sapiens) [PAP-213] . Output Pre-vaccination IgG Median (FIU): 33

----------
Tested on: cancer patients
Test: Test Example 4: correlation between vaccination with individual peptides (or peptide sets) and OS, Cox proportional hazards regression
Format: in vivo, human
Settings: Table 19; 2,085 advanced cancer patients (stage IV+recurrence); PPV not containing the peptide
Protocol: The Student's t-test and the chi-square test were used to compare quantitative and categorical variables, respectively. OS was calculated as the time in months from the date of clinical trial enrollment to death or to the date of last contact. Time-to-event endpoints were analyzed using the Kaplan-Meier method, and between-group comparison for OS was conducted using the log-rank test. […] Correlation levels of the 31 peptides for OS were evaluated by the Cox proportional hazards regression model. […]
ENDPOINT: Non-vaccinate cases (mOS)

Input ILGELREKV (listed as Homo sapiens) [WHSC2-141] . Output Non-vaccinate cases (mOS): 591(10.1) M

Input DLLSHAFFA (listed as Homo sapiens) [MAP-432] . Output Non-vaccinate cases (mOS): 892(10.8) M

Input LLQAEAPRL (listed as Homo sapiens) [SART3-302] . Output Non-vaccinate cases (mOS): 534(9.8) M

Input KLVERLGAA (listed as Homo sapiens) [Lck-246] . Output Non-vaccinate cases (mOS): 562(10.4) M

Input TYSVSFDSL (listed as Homo sapiens) [PSMA-624] . Output Non-vaccinate cases (mOS): 1168(10.7) M

Input GIHKQKEKSR (listed as Homo sapiens) [PAP-248] . Output Non-vaccinate cases (mOS): 845(9.9) M

Input DYSARWNEI (listed as Homo sapiens) [SART2-93] . Output Non-vaccinate cases (mOS): 340(10.2) M

Input NVLHFFNAPL (listed as Homo sapiens) [HNRPL-501] . Output Non-vaccinate cases (mOS): 897(10.3) M

Input QIRPIFSNR (listed as Homo sapiens) [SART3-734] . Output Non-vaccinate cases (mOS): 467(10.2) M

Input AYDFLYNYL (listed as Homo sapiens) [SART2-161] . Output Non-vaccinate cases (mOS): 1090(10.4) M

Input HYRKWIKDTI (listed as Homo sapiens) [PSA-248] . Output Non-vaccinate cases (mOS): 1016(10.2) M

Input DVWSFGILL (listed as Homo sapiens) [Lck-422] . Output Non-vaccinate cases (mOS): 1493(10.2) M

Input WLEYYNLER (listed as Homo sapiens) [SART3-511] . Output Non-vaccinate cases (mOS): 623(10.0) M

Input VYDYNCHVDL (listed as Homo sapiens) [SART3-109] . Output Non-vaccinate cases (mOS): 1566(10.2) M

Input HYTNASDGL (listed as Homo sapiens) [Lck-208] . Output Non-vaccinate cases (mOS): 1143(10.0) M

Input DYVREHKDNI (listed as Homo sapiens) [EGFR-800] . Output Non-vaccinate cases (mOS): 947(9.6) M

Input ASLDSDPWV (listed as Homo sapiens) [WHSC2-103] . Output Non-vaccinate cases (mOS): 1193(10.3) M

Input LYAWEPSFL (listed as Homo sapiens) [MRP3-503] . Output Non-vaccinate cases (mOS): 1138(10.4) M

Input LYCESVHNF (listed as Homo sapiens) [PAP-213] . Output Non-vaccinate cases (mOS): 1018(10.0) M

Input RYLTQETNKV (listed as Homo sapiens) [PTHrP-102] . Output Non-vaccinate cases (mOS): 1078(10.3) M

Input NYSVRYRPGL (listed as Homo sapiens) [MRP3-1293] . Output Non-vaccinate cases (mOS): 993(10.4) M

Input DYLRSVLEDF (listed as Homo sapiens) [Lck-488] . Output Non-vaccinate cases (mOS): 374(10.1) M

Input RLAEYQAYI (listed as Homo sapiens) [SART3-309] . Output Non-vaccinate cases (mOS): 603(9.8) M

Input KYVGIEREM (listed as Homo sapiens) [EZH2-735] . Output Non-vaccinate cases (mOS): 1193(10.4) M

Input VIQNLERGYR (listed as Homo sapiens) [Lck-449] . Output Non-vaccinate cases (mOS): 867(9.5) M

Input ILEQSGEWWK (listed as Homo sapiens) [Lck-90] . Output Non-vaccinate cases (mOS): 578(9.4) M

Input ALVEFEDVL (listed as Homo sapiens) [HNRPL-140] . Output Non-vaccinate cases (mOS): 700(10.0) M

Input TFDYLRSVL (listed as Homo sapiens) [Lck-486] . Output Non-vaccinate cases (mOS): 537(9.6) M

Input KLKHYGPGWV (listed as Homo sapiens) [CypB-129] . Output Non-vaccinate cases (mOS): 1183(10.1) M
